From: the supplement of paper PMC9170038

Tested on: MS2 coat protein
Assay: apparent KD of MS2 coat protein; higher = weaker reporter binding
Conditions: Eterna round: R107; input ligand: theophylline 20 uM
Reported metric: apparent KD of MS2 coat protein (nM)
Value expressed in nM; do not type the unit.

Examples with their reported apparent KD of MS2 coat protein follow.
| Sequence string | Reported metric | Experimental result |
| --- | --- | --- |
| UGGGUACAUGAGGAUCACCCAUGUACUGAAGGAGCGAGAAAUAACUCAGGUAGGUCGCAGACAUGAGGAUCACCCAUGUAAUAAA [Exclusion Arginine A GF 10] | apparent KD of MS2 coat protein | 23.4 |
| AACAUACAAUAUUAGGUGGAUAUAAGGCGGCGAGGACCGGUACGGCCGCCACUCGCGUACAUGAGGAUCACCCAUGUCUGAAACU [Same State - Tryptophan A (Freestyle 4)] | apparent KD of MS2 coat protein | 26.8 |

Input line: Request the reported apparent KD of MS2 coat protein associated with UAUAUAGUGAUGGAUACCAGCAGAGAAAACGUUUAUCCUAACAUGAGGAUCACCCAUGUAUGCCCUUGGCAGCUGUUGUUAUAUA [8.L]
Output line: 30.1

Input line: Request the reported apparent KD of MS2 coat protein associated with GCACCAGGUACGGAUACCAGCUAUAGGCACAGAGGAGGACAUGAGGAUCACCCAUGUGAUGGCCCUUGGCAGCUGUACCUGGUGC [EThB NP+V+V2 #3]
Output line: 23.2

Input line: Request the reported apparent KD of MS2 coat protein associated with AUGGAACAUGAGGAUCACCCAUGUGAUGAUACCAGAUUAACGCUUAUCCCUUGGCAGCAUGUCCGCCCUCAACCUGUGGCGUAUU [theeternabot_sameState_MS2_Theo_A_50]
Output line: 36

Input line: Request the reported apparent KD of MS2 coat protein associated with CUCGGUUGAUCCUAGCUGCCGAGAGGUGAUACCAGCAUCGAAAGAUGCCCUUGGCAGCACCAACAUGAGGAUCACCCAUGUAAUA [(MT)''-(M)'-(T')-(Theo)-(Ms2)_Design1/22_5]
Output line: 156

Input line: Request the reported apparent KD of MS2 coat protein associated with CAUGGCUGUGCGGCCGCCACUGGCUCAUCCUGCAUUACAUGAGGAUCACCCAUGUUGCGGCCUCCCAGGACCGGGCAUAGCCUGA [Abediat]
Output line: 511

###

Readings of apparent KD of MS2 coat protein for the listed sequences
Tested on: MS2 coat protein
Assay: apparent KD of MS2 coat protein; designed switch direction (-1 OFF switch, 1 ON switch): -1; higher = weaker reporter binding
Settings: input ligand: none
Value expressed in nM; do not type the unit.

Examples with their reported apparent KD of MS2 coat protein follow.
| Sequence string | Experimental result |
| --- | --- |
| AGCCACAGAGGAUAUACAUACAUCCAGUAGUAGAUACUACUACAUGAGGAUCACCCAUGUAGAAGGCUGUGGCA [Omei Ex2 BD B17] (Eterna round: R97, puzzle: Exclusion 2) | 162 |
| GAAUUAAUUAAUUAAUAAUACAUGAGGAUCACCCAUGUAGAUCCUACAUACAAUUUAAGUAGCUCGUCUUAUAAUUA [Stov1/1-A2] (Eterna round: R97, puzzle: Sensor, turn-off variant 1) | 202 |
| UGUCAGAUGGUAGGAUAUCCUUAUCGCGUGUCCCUUUCCUAACAUGAGGAUCACCCAUGUCGGUGGGAGAAGGGCCGUAUGGUG [salish99_ExNG02_R04_038] (Eterna round: R96, puzzle: Exclusion NG 2) | 13.4 |
| GACUCACAUGAGGAUCACCCAUGUUAGGAUAUAACCUCAUCAACAACGAUUUGGGAGGUUAGAAGGGAUGAUGG [Eternabot (L1) Solution 80] (Eterna round: R97, puzzle: Exclusion 1) | 89 |
| GGCAGACAUGAGGAUCACCCAUGUCAGGAUAUGUGGCGAUCGUCGAAAGACGAUAGCCACAGAAGGGACAUGCC [Eli x1 4.20] (Eterna round: R97, puzzle: Exclusion 1) | 22.4 |
| AGCUAGAUAGGAUAUGCCCGAGAUAACAUGAGGAUCACCCAUGUGACCGAAUCAAAUCUAGCAGAAGGGUUUAGGA [Mod of ViennaUCT 15 - Jieux - Exclusion 5] (Eterna round: R97, puzzle: Exclusion 5) | 17.2 |
| GUGUAACAUGAGGAUCACCCAUGUCAGGAUAUGCGAAUUUCAUCAAAAGAUGAAAUUUGCAGAAGGGACUGUAC [Omei Ex1 A24] (Eterna round: R97, puzzle: Exclusion 1) | 60.9 |
| GUUGUUUAUGUAGGAUAUGCCUGGCGUGCCUUUGCAGAAGGACAUGAGGAUCACCCAUGUAUUGCGGUCUGCGUUCAGAUCGCA [salish99_ExNG1_r4_039] (Eterna round: R96, puzzle: Exclusion NG 1) | 39 |

Proceed to the following item.
Input line: Request the reported apparent KD of MS2 coat protein associated with GCACGGAGUGUAGGAUAUCUGUGCGAUUAGCUCAGAGAAGGACACAUGAGGAUCACCCAUGUGUUCCACGGAAACGAACCGUGC [Eli exng1 - 052] (Eterna round: R96, puzzle: Exclusion NG 1)
Output line: 13.4

###

Readings of apparent KD of MS2 coat protein for the listed sequences
Tested on: MS2 coat protein
Assay: apparent KD of MS2 coat protein, switch ON state; designed switch direction (-1 OFF switch, 1 ON switch): -1; higher = weaker reporter binding
Details: FMN input: 0 or 200 uM; Eterna round: R93 (includes R88 designs)
Value expressed in nM; do not type the unit.

Examples with their reported apparent KD of MS2 coat protein follow.
| Sequence string | Experimental result |
| --- | --- |
| CUCUUGUCAGGAUAUGUAAGAAAAGAAAAGAAAGAAAAGAAACAGAAGGGACAUGAGGAUCACCCAUGUAAGAA [EteRNA is fun!] | 78.9 |
| AACAGUACAGGAUAUACAUGAGGAUCACCCAUGUGAGAAUUAAGCAGCGUAACACAAAGUAGAAGGGUAAUGGA [Ruby 19] | 39.9 |
| AGAAAACAUGAGGAUCACCCAUGUCAGGAUAUGUAAAAGAAAAGAAAAGAAAGAAGAAACAGAAGGGACAAGAA [Seth-Peribsen] | 56.9 |
| AAAAAGGGAGGAUAUACAUGAGGAUCACCCAUGUGUCAGACGAAAAAGAGUCUGAAGUGUAGAAGGCCCAAAAA [65%, Moding Exclusion3-cac2, 1] | 25.9 |
| AAGAAACAUGAGGAUCACCCAUGUGAGGAUAUGGAAGAAAGAAAGAAAGAAAGAAGAACCAGAAGGCACAAAGG [Publius Rubrius Barbarus] | 144 |
| AAAGGAUCAGGAUAUGUGUGGGAAAAGUGUGUCCAAAAAAAACAUGAGGAUCACCCAUGUAGAAGGGAUCCAAA [Mod 6 of Normal (20/19) by Nando, Round 1] | 487 |
| AACAAACAUGAGGAUCACCCAUGUCAGGAUAUGCAAAUAACAAACAACAAACAACAAAGCAGAAGGGAUAGGAA [Mat - Exclusion 1 - Eli mod - D52] | 23.3 |
| AAACCACAUGAGGAUCACCCAUGUGAGGAUAUGAACGAAAUAAAAUAAAAAAUAAAGUUCAGAAGGCACAAAAA [Mat - Exclusion 1 - Eli mod - D15] | 17.6 |

Input line: Request the reported apparent KD of MS2 coat protein associated with AAAAAGUGAGGAUAUACGGUGUGGAGUAGACACAACCAGGCGUAGAAGGCACAUGAGGAUCACCCAUGUCCAAA [EX4 Malc#15]
Output line: 25.9

Input line: Request the reported apparent KD of MS2 coat protein associated with GGAAAACAUGAGGAUCACCCAUGUAAGGAUAUGCUAAAAAAGGAAAAAAACCCACCAGGCAGAAGGUACUAAAG [Janelle Amethyst 18 Mod 3 - Jieux - Exclusion 1]
Output line: 22.7

Input line: Request the reported apparent KD of MS2 coat protein associated with AAAAAAGCAGGAUAUACGUACAUGUCAAAAGACGUGAAGGGACAUGAGGAUCACCCAUGUAGAAGGGUUAAGAA [JL Stem Breaker 17]
Output line: 220

Input line: Request the reported apparent KD of MS2 coat protein associated with AGGAAACAUGAGGAUCACCCAUGUGAGGAUAUAUGAAAGAAAAGAAAAGAAAGAAGAAGUAGAAGGCACAAGAA [Djer]
Output line: 27.2

Input line: Request the reported apparent KD of MS2 coat protein associated with AGCUAGUCAGGAUAUACGAACAUGUCAAAAGACGUGAAAAAACAUGAGGAUCACCCAUGUAGAAGGGACUAGCA [Mat - Exclusion 2 - JL mod - D11]
Output line: 18.8

Input line: Request the reported apparent KD of MS2 coat protein associated with GGGUCACAUGAGGAUCACCCAUGUAAGGAUAUGCUAGGGAUGGAAACCAUUACGCAACGCAGAAGGUACUAAAG [Janelle Amethyst 18 Mod 11 - Jieux - Exclusion 1]
Output line: 40.3

Input line: Request the reported apparent KD of MS2 coat protein associated with AGGGAACAUGAGGAUCACCCAUGUGAGGAUAUGCUAUGGAAAAUAAAAAUAAAACAUAGCAGAAGGCAUAAAAA [Denovo 10]
Output line: 52.1

Input line: Request the reported apparent KD of MS2 coat protein associated with AAGAAGUGAGGAUAUCGAAGACUGUCGAAAAGACAGUCGAACGAGAAGGCACAUGAGGAUCACCCAUGUGAGAG [Mat - Exaclusion 4 - Eli mod - D66]
Output line: 31.9

Input line: Request the reported apparent KD of MS2 coat protein associated with AAAAAGGCAGGAUAUACAAAACAGGGAAACCUGAAAAGGAAACAUGAGGAUCACCCAUGUAGAAGGGCCAAGAA [Clint Eastwood]
Output line: 31
